Assay: basal 3T3-L1 adipocyte mitochondrial potential changes, profiling panel, cell-based, JC-1 fluorescence, 3T3-L1 adipocytes, 24 h, 100 nL compound (AID 1168); further: test concentration not given here
Details: JC-1 mitochondrial fluorescence, higher = more signal, called active from +8 up or from −8 down
So basically: z-score at 0.04 or higher? That is Met. Lower than 0.04? That is Not met.

# check: z-score of `CCCC[C@@H]1C[C@H]1[C@@H](NC(=O)c1ccco1)c1ccc(C(=O)OC)cc1` is greater than or equal to 0.04
Not met

Similarly, `O=C(c1ccccc1)N1Cc2ccccc2[C@@H]2OC(c3ccc(OCCCO)cc3)=N[C@]2(Cc2ccccc2)C1=O` ?
Met

What about `O=C1[C@H]2C=C(Br)[C@H](C[C@@H]2OCCCCO)[C@@]12CO2` ?
Not met

Continue with `COC(=O)C(CC#Cc1ccc2c(c1)[C@]1(C(=O)N2)[C@H](c2ccc(O)cc2)N2[C@H](c3ccccc3)[C@H](c3ccccc3)OC(=O)[C@H]2[C@@H]1C(=O)Nc1nc2ccccc2s1)C(=O)OC`
Not met

Request: `CC(=O)N1Cc2ccccc2C[C@@]2(COC(c3ccc(OCCCO)cc3)=N2)C1=O`
Met

Repeat for the following molecule: `COc1ccc(C(=O)Nc2ccc(CN3C(=O)[C@@]4(O[C@@H](CC(=O)N5CCC[C@H]5CO)[C@H]([Si](C)(C)c5ccc(OC)cc5)[C@H]4C)c4ccccc43)cc2)cc1`
Met

Another molecule: `C=CCNC(=O)[C@@H]1[C@H]2C(=O)O[C@H](c3ccccc3)[C@H](c3ccccc3)N2[C@H](c2ccc(OCCO)cc2)[C@@]12C(=O)Nc1ccc(C#CCCO)cc12`
Met

// query: `C=C(COC)/C(=C/C[C@@H](OC(C)=O)c1ccc(OCCO)cc1)c1cc(C(=O)OC)ccc1OC`
Not met

How about `COCCOC(=O)N1C(=O)[C@@]2(c3cc(C#CCCO)ccc31)[C@H](C(=O)N1CCc3cc(OC)c(OC)cc3C1)[C@H]1C(=O)O[C@H](c3ccccc3)[C@H](c3ccccc3)N1[C@@H]2c1ccc(O)cc1` ?
Not met

Entry `O=C1[C@H]2C=C(Br)[C@H](C[C@@H]2c2ccccc2)[C@@]12CO2` please
Met

Try this molecule too: `CCOC(=O)C[C@H]1[C@H](OC(=O)c2ccc(C(=O)c3ccccc3)cc2)[C@@H](NC(=O)c2ccc(-c3ccccc3)cc2)c2cc(OCCCO)ccc2N1C(=O)c1ccccc1`
Not met

And the next one, `COC(=O)c1c(CC[C@@H](CO)NC(=O)N[C@H](Cn2cc(Cc3ccccc3)nn2)C(C)C)oc(C(C)=O)c1C(=O)OC` ?
Met

And CC(C)C(CO)N1C(=O)[C@@H]2[C@H]3C(=O)OCC=C[C@H]3OC23C=CCN(C(C)C)C(=O)[C@@H]13 (stereo partly drawn) ?
Met

Now the molecule `C=CC[C@@]1(C(N)=O)N=C(c2ccc(OCCCO)cc2)O[C@@H]1c1ccccc1CN=[N+]=[N-]`
Not met

Same question for O=C1C2C=CC(C(O)C(c3ccccc3)c3ccccc3)N(n3cnnc3)C2C(=O)N1Cc1ccccc1 (stereo not drawn) please.
Not met

Repeat with CS(=O)(=O)CCOC(=O)C1=CC(CCCO)=CC(c2ccc(CN3CCCC3)cc2)N(Cc2cc3c(cc2Br)OCO3)C=C1C(=O)OCCS(C)(=O)=O (stereo not drawn)
Met

Please give the result for `COC(=O)[C@@]1(Cc2ccccc2)[C@H]2c3cc(C(=O)N4CCCC4)n(Cc4nc5ccccc5[nH]4)c3C[C@H]2CN1C(=O)c1ccccc1` too.
Not met

Same again, this time with `O=C(NCc1ccccc1)[C@@]1(Cc2ccccc2)N=C(c2ccc(OCCCO)cc2)O[C@H]1c1ccccc1`
Not met

Hey, just so you know, these numbers are from PubChem BioAssay.
